Target: G protein-coupled receptor kinase 6 (Homo sapiens, UniProt P43250); also: in the data inactive means no Kd found up to 30 µM
Sequence (P43250 whole entry): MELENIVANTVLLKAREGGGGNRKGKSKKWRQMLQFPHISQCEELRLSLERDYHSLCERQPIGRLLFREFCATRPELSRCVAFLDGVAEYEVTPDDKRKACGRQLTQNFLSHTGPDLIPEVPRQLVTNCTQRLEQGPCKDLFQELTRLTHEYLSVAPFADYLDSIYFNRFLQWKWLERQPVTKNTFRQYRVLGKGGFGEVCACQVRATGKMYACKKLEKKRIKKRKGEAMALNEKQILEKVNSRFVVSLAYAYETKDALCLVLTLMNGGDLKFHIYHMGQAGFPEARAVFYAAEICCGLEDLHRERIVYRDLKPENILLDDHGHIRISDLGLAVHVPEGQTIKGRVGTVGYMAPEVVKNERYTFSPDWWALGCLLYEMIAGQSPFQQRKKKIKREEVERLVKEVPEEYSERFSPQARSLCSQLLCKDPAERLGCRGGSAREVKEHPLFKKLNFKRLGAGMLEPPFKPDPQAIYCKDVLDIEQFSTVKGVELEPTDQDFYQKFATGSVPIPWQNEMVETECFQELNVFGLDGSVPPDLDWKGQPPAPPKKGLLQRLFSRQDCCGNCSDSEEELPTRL
The source made the active and inactive calls.

compound	Kd
FC(F)(F)c1ccc(/C=C/c2nc(COc3ccc(CCCCn4ccnn4)cc3)co2)cc1	> 30 µM (inactive)
CN1CCN(CCOc2cc(OC3CCOCC3)c3c(Nc4c(Cl)ccc5c4OCO5)ncnc3c2)CC1	> 30 µM (inactive)
COc1ccc(S(=O)(=O)N(C(C)=O)c2ccccc2/C=C/c2cc[n+]([O-])cc2)cc1	> 30 µM (inactive)
CO[C@H]1C[C@@H]2CC[C@@H](C)[C@@](O)(O2)C(=O)C(=O)N2CCCC[C@H]2C(=O)O[C@H]([C@H](C)C[C@@H]2CC[C@@H](OP(C)(C)=O)[C@H](OC)C2)CC(=O)[C@H](C)/C=C(\C)[C@@H](O)[C@@H](OC)C(=O)[C@H](C)C[C@H](C)/C=C/C=C/C=C/1C	> 30 µM (inactive)
Nc1ncnc2c1c(-c1cccc(OCc3ccccc3)c1)cn2[C@H]1C[C@@H](CN2CCC2)C1	> 30 µM (inactive)
CO[C@H]1C[C@@H]2CC[C@@H](C)[C@@](O)(O2)C(=O)C(=O)N2CCCC[C@H]2C(=O)O[C@H]([C@H](C)C[C@@H]2CC[C@@H](OC(=O)C(C)(CO)CO)[C@H](OC)C2)CC(=O)[C@H](C)/C=C(\C)[C@@H](O)[C@@H](OC)C(=O)[C@H](C)C[C@H](C)/C=C/C=C/C=C/1C	> 30 µM (inactive)
NC(=O)c1c(OCc2c(F)cc(Br)cc2F)nsc1NC(=O)NCCCCN1CCCC1	> 30 µM (inactive)
O=C(NOCCO)c1cc(CN2OCCCC2=O)c(F)c(F)c1Nc1ccc(I)cc1F	> 30 µM (inactive)
Cc1cccc(-c2nn3c(c2-c2ccnc4ccc(C(N)=O)cc24)CCC3)n1	> 30 µM (inactive)
CNC(=O)c1cc(Oc2ccc(NC(=O)Nc3cc(C(C)(C)C)nn3-c3ccc4ncccc4c3)c(F)c2)ccn1	> 30 µM (inactive)
Cc1cc(C(=O)NOCCO)c(Nc2ccc(I)cc2F)n(C)c1=O	> 30 µM (inactive)
CCn1c(C(=O)N(C2CC2)C2CC2)cc2c3c(ncn3C)c(Nc3cc(C)n(C)n3)nc21	> 30 µM (inactive)
N#CC1(c2ccc(NC(=O)c3cccnc3NCc3ccncc3)cc2)CCCC1	> 30 µM (inactive)
CCNC(=O)C#Cc1ccc2c(c1)NC(=O)/C2=C(\Nc1ccc(CN(C)C)cc1)c1ccccc1	> 30 µM (inactive)
C[C@@H](Oc1cc(-n2cnc3ccc(CN4CCN(C)CC4)cc32)sc1C(N)=O)c1ccccc1C(F)(F)F	> 30 µM (inactive)
Cc1cc(Nc2ncc(Cl)c(Nc3ccccc3S(=O)(=O)C(C)C)n2)c(OC(C)C)cc1C1CCNCC1	> 30 µM (inactive)
CN1C/C=C/CCOc2cccc(c2)-c2ccnc(n2)Nc2cccc(c2)C1	> 30 µM (inactive)
Cc1cnc(NC(=O)Nc2cc(Br)c(C)cc2OC[C@@H]2CNCCO2)cn1	> 30 µM (inactive)
C=CC(=O)Nc1cc2c(Nc3ccc(F)c(Cl)c3)ncnc2cc1C#CC(C)(C)N1CCN(C)CC1 [AV-412 FREE BASE]	> 30 µM (inactive)
COCC(=O)NC/C=C/c1ccc2ncnc(Nc3ccc(Oc4ccc(C)nc4)c(C)c3)c2c1	> 30 µM (inactive)
COc1cc2ncnc(Oc3cccc(NC(=O)Nc4cc(C(C)(C)C(F)(F)F)on4)c3)c2cc1OC	> 30 µM (inactive)
C[C@@H](Oc1cc(C(=O)Nc2ccc(C(=O)N3CCN(C)CC3)cc2)nnc1N)c1c(Cl)ccc(F)c1Cl	> 30 µM (inactive)
O=C1NC(=O)[C@@H](c2cn3c4c(cccc24)CCC3)[C@@H]1c1c[nH]c2ccccc12 [TIVANTINIB]	> 30 µM (inactive)
NC1(c2ccc(-c3nc4ccn5c(=O)[nH]nc5c4cc3-c3ccccc3)cc2)CCC1	> 30 µM (inactive)
COc1ncc(-c2ccc3nccc(-c4ccnnc4)c3c2)cc1NS(=O)(=O)c1ccc(F)cc1F	> 30 µM (inactive)
COc1c(OCCCN2CCOCC2)ccc2c1N=C(NC(=O)c1cnc(N)nc1)N1CCN=C21	> 30 µM (inactive)
COc1cc2c(Nc3ccc(Cl)c(Cl)c3F)ncnc2cc1OC[C@@H]1C[C@@H]2CN(C)C[C@@H]2C1	> 30 µM (inactive)
CC(C)c1cc(CNc2nc(Nc3cc(C4CC4)[nH]n3)cc(N3CCN(C)CC3)n2)on1	> 30 µM (inactive)
Cn1cc(-c2cnc3ccc4ccc(CS(=O)(=O)NCc5ccccn5)cc4c(=O)c3c2)cn1	> 30 µM (inactive)

Origin of the recorded values: ChEMBL document CHEMBL3991601
